TEST: endothelial E-selectin expression blockers – imaging, HUVEC, immunofluorescence, MLSMR starter and 10KST1 sets, primary screen (AID 487);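 note: 100% = median nuclei count of all wells on the same plate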
TEST CONTEXT: HUVEC TNFalpha-induced E-selectin immunofluorescence imaging, at 2 µM; measured here: cell number, toxicity
Give nuclei count for every item shown.
One number for each entry, in %.

>>> result_number("CCc1ccc(Nc2cc(=O)n(C3CCCCC3)c(=O)[nH]2)cc1")
121
>>> result_number("O=C(Nc1ccccc1C(=O)N1CCOCC1)C1CCC(=O)N1C1CCCC1 (stereo unspecified)")
110
>>> result_number("COC(=O)CNc1nc(C2CC2)nc2c1nnn2Cc1ccccc1Cl")
97.5
>>> result_number("O=C(c1ccco1)N1CCN(C(=O)c2cc3c(s2)-c2ccccc2OC3)CC1")
102
>>> result_number("O=S1(=O)CCC(NS(=O)(=O)/C=C/c2ccccc2)C1 (stereo unspecified)")
96.4

Requested read-out: nuclei count. Entry: Cc1cc(C)cc(OCC(=O)NC2=NCCS2)c1
115

---

Give NADPH fluorescence slope for every item shown.
MEASUREMENT TARGET: Voltage-gated potassium channel subunit beta-2 (Rattus norvegicus)
TEST: enhancers of rat Kvbeta2 NADPH turnover – biochemical, NADPH fluorescence, primary screen (AID 623);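 note: fluorescence intensity change per second fitted from 20 to 320 s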
TEST CONTEXT: Recombinant KvBeta, NADPH fluorescence decrease slope, 10 min; at 10 µM; stronger effect = lower value
Give bare numbers.

Some entries whose results are on file:
>>> result_number("COC(=O)c1cnc2c(C(F)(F)F)cccc2c1OC")
"6.9e-06"
>>> result_number("CCCn1cc(SCC(N)=O)c2ccccc21")
"-6.4e-06"
>>> result_number("CC(NC(=O)Cc1cccs1)c1ccc2c(c1)OCO2 (stereo unspecified)")
"-2.4e-05"
>>> result_number("C=CCn1c(Br)nc2c1c(=O)[nH]c(=O)n2C")
"-3.1e-05"

Could you tell me NADPH fluorescence slope for each of these compounds? They are listed below.
1. CSc1oc(-c2ccccc2)nc1S(=O)(=O)c1ccc(F)cc1
2. O=C(CCSc1nc(-c2ccco2)cc(C(F)(F)F)n1)Nc1ccc2c(c1)OCO2

1: -3.1e-05; 2: 2.5e-05

---

TEST: TLR3 IRF3 reporter activation blockers – cell-based, poly I:C stimulus, luciferase, 10K MLSCN set, primary screen (AID 602277)
TEST CONTEXT: HEK293-TLR3 RL24 IRF3 luciferase reporter, at 10 µM, stronger effect = higher value
READOUT KIND: inhibition (%)
One number for each entry, in %.

>>> result_number("CCn1cc(C(=O)O)c(=O)c2cc(F)c(N3CCN(C(=O)Nc4ccccc4)CC3)cc21")
10.7
>>> result_number("O=C(c1ccccc1Cl)N1CCc2ccccc2C1")
-17

Could you tell me inhibition for each of these molecules? They are listed below.
1. O=C(O)c1ccc2c3c(ncnc13)-c1ccccc1C2=O
2. COc1ccc(OC)c(C(=O)COC(=O)c2cc(C)oc2C)c1
3. CCN(CC)CCCNC(=O)c1cn(C)c2ccc(S(=O)(=O)N(C)C)cc2c1=O
4. COCCN1CCN(c2c(C)c(C)nc3cc(-c4cccc(OC)c4)nn23)CC1

1. 26.7
2. -0.082
3. 33.2
4. 16.1

---

MEASUREMENT TARGET: Voltage-gated potassium channel subunit beta-2 (Rattus norvegicus)
TEST: inhibitors of rat Kvbeta2 reductase activity – biochemical, NADPH fluorescence, primary screen (AID 622);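 note: slope of raw intensity against log time taken from 70 to 1610 s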
TEST CONTEXT: recombinant KvBeta, 4-cyanobenzaldehyde reduction, at 10 µM, stronger effect = higher value
READOUT KIND: fluorescence slope
Answers are plain numbers.

Some entries whose results are on file:
>>> result_number("Cc1cc(N2CCC3(CC2)OCCO3)n2nc(C)c(-c3ccc(Cl)cc3)c2n1")
-0.544
>>> result_number("Cc1cc(C(F)(F)F)nn1Cc1ccc(C(=O)NCc2ccco2)o1")
-0.568

The record that follows has no fluorescence slope shown yet.
So what fluorescence slope did COC(=O)Nc1ccccc1C(=O)N1CCCCC1 get with Voltage-gated potassium channel subunit beta-2 (Rattus norvegicus)?
-0.597

---

Give inhibition of aggregation for every item shown.
TEST: reduction of polyQ htt aggregates in cells – imaging, exon1htt(103Q)mCFP cells, high-content imaging, primary screen (AID 483);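 note: compound exposure lasted 3 days before fixation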
TEST CONTEXT: exon1htt(103Q)mCFP cell line, aggregate imaging, at 2 µM; stronger effect = higher value
Answers are plain numbers, in %.

Some entries whose results are on file:
>>> result_number("Cc1cccc(-c2cc3nc4c(c(N5CCC6(CC5)OCCO6)n3n2)CCCC4)c1")
19.8
>>> result_number("CCOc1ccc(NC(=O)c2ccccc2O)cc1")
9.7
>>> result_number("CC(C)N(C(=O)N1CCC(c2nc(-c3ccncc3)no2)CC1)C(C)C")
8.3
>>> result_number("Cc1cc(C(F)(F)F)nc(SCC(=O)NC2=NC(=O)C(C)S2)n1 (stereo not drawn)")
4.5
>>> result_number("CCc1nnc(NC(=O)c2ccc(COc3ccc(C)cc3)o2)s1")
6.3

Could you tell me inhibition of aggregation for each of these compounds? They are listed below.
1. O=C(NCC1CCCO1)c1cccc(N2CCCC2=O)c1 (stereo not drawn)
2. Cc1onc(-c2ccccc2)c1C(=O)Nc1sc2c(c1C(N)=O)CCC2
3. CCn1c(SCC(=O)Nc2cccc(C)c2)nc2c(c1=O)SC(C)C2 (stereo not drawn)
4. CN(C)S(=O)(=O)c1ccc2c(c1)c(=O)c(C(=O)NCCCN1CCCCCC1)cn2C
5. CC1=C(C(=O)OCc2ccccc2)C(c2ccc(C)o2)C2=C(CCCC2=O)N1 (stereo not drawn)
6. Cn1ccnc1SCC(=O)Nc1ccc2ccccc2c1

1: -1.3; 2: -0.6; 3: 40.7; 4: 4.4; 5: 14.6; 6: 13.5

Could you tell me inhibition of aggregation for each of these compounds? They are listed below.
1. Nn1cnnc1SCC(=O)Nc1ccc2c(c1)OCCO2
2. Cc1cccc(-c2c3c(=O)n(C)c(=O)n(C)c3cn2-c2ccc(O)cc2)c1

1. -23.3
2. 30.8

Could you tell me inhibition of aggregation for each of these compounds? They are listed below.
1. COc1ccccc1NC1=NC(c2ccc(Cl)cc2)N=C(N)N1 (stereo not drawn)
2. CCN(CC)C(=O)COC(=O)c1ccc(O)cc1
3. CCN(CC)C(=O)C1CCCN(c2ncnc3c2cnn3-c2ccc(Cl)cc2)C1 (stereo not drawn)
4. CC1CCCCN1C(=O)Cn1nnc(-c2cccnc2)n1 (stereo not drawn)
5. CCOc1ccc(C(C)=O)cc1COc1ccc(-n2cnnn2)cc1

1: -17.1; 2: 9.9; 3: 0.8; 4: -12; 5: 18.3

---

TEST: TLR3 IRF3 reporter activation blockers – cell-based, poly I:C stimulus, luciferase, 10K MLSCN set, primary screen (AID 602277)
TEST CONTEXT: HEK293-TLR3 RL24 IRF3 luciferase reporter, at 10 µM, stronger effect = higher value
Give inhibition for every item shown.
Numbers only, in %.

Could you tell me inhibition for each of these compounds? They are listed below.
1. Nc1nc2n(n1)C(c1c(F)cccc1Cl)CC(c1ccc(F)cc1)N2 (configuration not stated)
2. COCCNC(=O)C(c1cccc(OC)c1)N(Cc1cccs1)C(=O)Cn1nnc2ccccc21 (configuration not stated)
3. CC1=CC2=C(OC1N(C)C)c1cccc3cccc(c13)C2=O (configuration not stated)
4. Cc1nn(-c2ccccc2)c(Cl)c1C(=O)NCC(=O)O
5. CC(O)c1c(OCc2ccccc2)ncnc1OCc1ccccc1 (configuration not stated)

1: 25.6; 2: 20.1; 3: -3.5; 4: 25.8; 5: 20.8

---

TEST: reduction of polyQ htt aggregates in cells – imaging, exon1htt(103Q)mCFP cells, high-content imaging, primary screen (AID 483);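 note: compound exposure lasted 3 days before fixation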;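 for nuclei count: percent of the per-plate median nuclei count of sample wells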
TEST CONTEXT: exon1htt(103Q)mCFP cell line, aggregate imaging, at 2 µM; measured here: cell count, toxicity
READOUT KIND: nuclei count

Some entries whose results are on file:
>>> result("COC(=O)c1[nH]c2ccc(C)cc2c1NC(=O)CN1CCCc2ccccc21")
"83.4%"
>>> result("CC(=O)OC(C(=O)NC1CCCCC1)c1ccncc1 (centres undefined)")
"105%"
>>> result("CCCCn1c2c(c3ccccc31)CCc1nonc1-2")
"75.1%"

Could you tell me nuclei count for each of these compounds? They are listed below.
1. O=c1[nH]c(/C(=N\O)c2ccccc2)no1
2. CCOC(=O)N1CCN(C(=O)CSc2nnc(Cc3ccccc3)o2)CC1
3. Cc1cc(N2CCC3(CC2)OCCO3)n2nc(C)c(-c3ccc(Cl)cc3)c2n1

1. 109%
2. 123%
3. 61.2%

Could you tell me nuclei count for each of these compounds? They are listed below.
1. Clc1ccc2nc(N3CCCCC3)[nH]c2c1
2. CCN(CC)CCCN1C(=O)C(=O)/C(=C(/O)c2ccc3c(c2)OCO3)C1c1ccccn1 (centres undefined)
3. COc1ccc(CCNC(=O)c2cc3sc(Cl)cc3n2C)cc1OC

98.7%
85.9%
99.5%

Could you tell me nuclei count for each of these compounds? They are listed below.
1. COc1ccc(CCNC(=O)c2cnc3scc(C)n3c2=O)cc1OC
2. CCCCCn1c(CN2CCN(C(=O)OCC)CC2)nc2c1c(=O)[nH]c(=O)n2C

["82.6%", "105%"]
